tested on: Mycobacterium tuberculosis (RCMB 010126); test: Microplate Alamar blue assay; type: cell-based; details: RCMB010126, Mycobacterium tuberculosis RCMB 010126, MABA
OBSERVED_PROPERTY: MIC

| SMILES_CODE | OBS_VALUE |
| --- | --- |
| N#Cc1cc(C(=O)c2ccc3ccccc3c2O)cn(-c2ccc(Br)cc2)c1=O | < 1 µg/mL |
| O=C(c1cnc2[nH]nc(O)c2c1)c1ccc2ccccc2c1O | < 2 µg/mL |
| N#Cc1cc(C(=O)c2ccc3ccccc3c2O)cn(-c2ccc([N+](=O)[O-])cc2)c1=O | < 2 µg/mL |
| O=C(C1=CNC(=S)NN=C1)c1ccc2ccccc2c1O | < 2 µg/mL |
| N#Cc1cc(C(=O)c2ccc3ccccc3c2O)cn(-c2nc3ccccc3s2)c1=O | < 2 µg/mL |
| Cc1c(-n2cc(C(=O)c3ccc4ccccc4c3O)cc(C#N)c2=O)c(=O)n(-c2ccccc2)n1C | < 2 µg/mL |

Please examine the following record next.
Form: molecule = `CC(=Nn1cc(C(=O)c2ccc3ccccc3c2O)cc(C#N)c1=O)c1cc2ccccc2oc1=O` ; MIC = < 1 µg/mL

###

Assign Selectivity index (SI) to each entry below.
target: ovine COX-2 (Ovis aries); experiment: COX-2 inhibition enzyme immunoassay; format: biochemical; details: COX-1 IC50/COX-2 IC50
Sequence (P79208 17-603): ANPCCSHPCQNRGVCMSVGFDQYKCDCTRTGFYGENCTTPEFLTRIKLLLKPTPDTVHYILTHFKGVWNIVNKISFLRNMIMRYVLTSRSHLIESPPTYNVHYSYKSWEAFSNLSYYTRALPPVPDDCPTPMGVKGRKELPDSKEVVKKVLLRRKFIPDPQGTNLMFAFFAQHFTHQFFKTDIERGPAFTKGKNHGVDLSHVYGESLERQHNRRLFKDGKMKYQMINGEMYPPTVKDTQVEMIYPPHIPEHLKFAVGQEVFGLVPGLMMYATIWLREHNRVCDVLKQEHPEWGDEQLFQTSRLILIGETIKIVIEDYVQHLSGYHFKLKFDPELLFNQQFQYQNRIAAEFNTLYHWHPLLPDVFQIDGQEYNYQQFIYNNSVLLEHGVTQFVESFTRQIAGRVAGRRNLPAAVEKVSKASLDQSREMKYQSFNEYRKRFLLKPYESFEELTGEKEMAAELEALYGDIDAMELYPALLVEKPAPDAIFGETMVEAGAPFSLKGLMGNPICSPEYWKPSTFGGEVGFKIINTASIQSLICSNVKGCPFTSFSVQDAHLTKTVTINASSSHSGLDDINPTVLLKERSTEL
Give bare numbers.

Field: example entries. Status: answers known.
| MOLECULE | MEASUREMENT_TARGET | OBSERVED_PROPERTY | OBS_VALUE |
| --- | --- | --- | --- |
| N#Cc1cc(C(=O)c2ccc3ccccc3c2O)cn(-c2ccc(Br)cc2)c1=O [Compound 3d] | ovine COX-2 (Ovis aries) | Selectivity index (SI) | 972.9 |
| CCOC1Oc2c(ccc3ccccc23)-c2n[nH]cc21 (stereo not drawn) [Compound 10] | ovine COX-2 (Ovis aries) | Selectivity index (SI) | 989.3 |

Please examine the following record next.
Form: molecule = O=c1c(C=Nc2nc3ccccc3s2)coc2c1ccc1ccccc12 [Compound 12b] ; Selectivity index (SI) = 971.8

Measured values drawn from paper PMC9058152 for this set.
